- System: Candida albicans
- Measurement Description: Minimum Inhibitory Concentration, broth dilution (NCCLS M27-A)
- Format: cell-based
Attribute: Micro. Data (DLM/CJ) MIC

Consider the following illustrative entries.
Compound | Micro. Data (DLM/CJ) MIC
COC(=O)[C@H]1[C@@H]2C[C@@H](O[C@@H]3O[C@H](C)[C@@H](O)[C@H](N)[C@@H]3O)/C=C/C=C/C=C/C=C/C=C/C=C/C=C/[C@H](C)[C@@H](O)[C@@H](C)[C@H](C)OC(=O)C[C@H](O)C[C@H](O)CC[C@@H](O)[C@H](O)C[C@H](O)C[C@](O)(C[C@@H]1O)O2 | 1
COC(=O)C1C2C[C@@H](OC3O[C@H](C)[C@@H](O)[C@H](NC[C@@]4(O)OC[C@@H](O)[C@@H](OC5O[C@H](CO)[C@H](O)[C@H](O)[C@H]5O)[C@@H]4O)[C@@H]3O)/C=C/C=C/C=C/C=C/C=C/C=C/C=C/[C@H](C)[C@@H](O)[C@@H](C)[C@H](C)OC(=O)C[C@H](O)C[C@H](O)CC[C@@H](O)[C@H](O)C[C@H](O)C[C@](O)(C[C@@H]1O)O2 (stereo partly shown) | 2
COC(=O)C1C2C[C@@H](OC3O[C@H](C)[C@@H](O)[C@H](NC[C@@]4(O)OC[C@@H](O)[C@H](O)[C@@H]4O)[C@@H]3O)/C=C/C=C/C=C/C=C/C=C/C=C/C=C/[C@H](C)[C@@H](O)[C@@H](C)[C@H](C)OC(=O)C[C@H](O)C[C@H](O)CC[C@@H](O)[C@H](O)C[C@H](O)C[C@](O)(C[C@@H]1O)O2 (stereo partly shown) | 2

Then there is this compound:
Query: Micro. Data (DLM/CJ) MIC; subject: C[C@@H]1[C@H](O)[C@@H](C)/C=C/C=C/C=C/C=C/C=C/C=C/C=C/[C@H](O[C@@H]2O[C@H](C)[C@@H](O)[C@H](N)[C@@H]2O)C[C@@H]2O[C@](O)(C[C@@H](O)C[C@@H](O)[C@H](O)CC[C@@H](O)C[C@@H](O)CC(=O)O[C@H]1C)C[C@H](O)[C@H]2C(=O)O [AmB, amphotericin B, reference compound]
0.5
